biological target: HuCD100-His (human, UniProt Q92854 22-734); test: cell-based or functional assay
We label by threshold. Values of MDSC proportion (%) at 2.821 nM antibody strictly beneath 30% are 1. Values of 30% and up are 0.

| Binder | Discrete Label |
| --- | --- |
| A31 (antibody, human IgG4 S228P, V domains shown, also called antibody A31; antibody molecule A31) VH: EVQLVESGGGLVQPEGSLRLSCAASGFPLDYYAIGWFRQAPGKEREGVSCIISGGSTKYSASVKGRFTISRDSANNTVYLQMNSLKPEDTAVYFCAVSWSCDLFPRDTYGWDAWGQGTLVTVSS | 1 |

In plain terms, does A9 (antibody, human IgG4 S228P, V domains shown, also called antibody A9; antibody molecule A9) VH: QVQLVESGGGLVQAGGSLRLSCAASGFSLDYYAIGWFRQAPGKEREEVSCISSSGGSTDYADSVKGRFTISRAYAKVYLQMNSLKPEDTAVYYCAAGVSGSVCPPLIGAYWGQGTQVTVSS come in under 30% for MDSC proportion (%) at 2.821 nM antibody?
0

Answer whether the binder A9-VHH1 (antibody, human IgG4 S228P, V domains shown) VH: QVQLVESGGGLVQPGGSLRLSCAASGFSLDYYAIGWFRQAPGKEREEVSCISSSGGSTDYADSVKGRFTISRAYAKVYLQMNSLKPEDTAVYYCAAGVSGSVCPPLIGAYWGQGTLVTVSS has MDSC proportion (%) at 2.821 nM antibody strictly less than 30%
0

Determine whether this binder shows MDSC proportion (%) at 2.821 nM antibody lower than 30% (ties excluded): A9-VHH2 (antibody, human IgG4 S228P, V domains shown) VH: QVQLVESGGGLVQAGGSLRLSCAASGFSLDYYAIGWFRQAPGKEREEVSCISSSGGSTDYADSVKGRFTISRAYAKVYLQMNSLRAEDTAVYYCAAGVSGSVCPPLIGAYWGQGTLVTVSS
0

Is it true that MDSC proportion (%) at 2.821 nM antibody reported for A31-VHH1 (antibody, human IgG4 S228P, V domains shown, also called humanized antibody A31-VHH1) VH: EVQLVESGGGLVQPEGSLRLSCAASGFPLDYYAIGWFRQAPGKEREGVSCIISGGSTKYSASVKGRFTISRDSAKNTVYLQMNSLRAEDTAVYFCAVSWSCDLFPRDTYGWDAWGQGTLVTVSS is less than 30%?
1
